This listing pairs compounds with measured Luciferase Assay % Lum.
targetEntity: full-length P. pyralis luciferase (Photinus pyralis, UniProt P08659, K549A/L550V/N119G/N50D/S548I)
Sequence (P08659 whole entry N50D/N119G/S548I/K549A/L550V, looked up): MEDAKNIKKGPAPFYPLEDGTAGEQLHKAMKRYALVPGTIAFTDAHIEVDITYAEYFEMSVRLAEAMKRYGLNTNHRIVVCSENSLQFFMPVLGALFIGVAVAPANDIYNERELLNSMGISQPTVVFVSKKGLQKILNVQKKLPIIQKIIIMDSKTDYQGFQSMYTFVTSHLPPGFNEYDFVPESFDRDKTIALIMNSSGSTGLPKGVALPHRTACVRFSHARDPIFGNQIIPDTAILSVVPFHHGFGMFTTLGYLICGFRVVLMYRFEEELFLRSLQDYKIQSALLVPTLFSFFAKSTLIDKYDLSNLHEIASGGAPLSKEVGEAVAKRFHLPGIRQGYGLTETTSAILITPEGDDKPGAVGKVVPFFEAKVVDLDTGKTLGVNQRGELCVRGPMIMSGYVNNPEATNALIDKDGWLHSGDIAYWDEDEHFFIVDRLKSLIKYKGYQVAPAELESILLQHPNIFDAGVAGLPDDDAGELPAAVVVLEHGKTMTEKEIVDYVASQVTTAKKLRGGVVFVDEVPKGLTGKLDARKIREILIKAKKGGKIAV
Format: cell-based
settings: CC_NCI screening; full-length luciferase counter-screen luminescence; normalized to on-plate 0.3% DMSO controls
Give the quantity in %, number only.

Reference set (5 entries):
Inquiry: Need Luciferase Assay % Lum, item `CO[C@H]1C(=O)[C@]2(C)[C@@H](OC)C[C@H]3OC[C@@]3(OC(C)=O)[C@H]2[C@H](OC(=O)c2ccccc2)[C@]2(O)C[C@H](OC(=O)[C@H](O)[C@@H](NC(=O)OC(C)(C)C)c3ccccc3)C(C)=C1C2(C)C`
Reply text: 90.38

Inquiry: Need Luciferase Assay % Lum, item `Cc1cccc(Nc2nc(-c3ccncc3)cs2)c1`
Reply text: 83.43

Inquiry: Need Luciferase Assay % Lum, item `CCN(CC)CCNC(=O)c1c(C)[nH]c(/C=C2\C(=O)Nc3ccc(F)cc32)c1C`
Reply text: 95.10

Inquiry: Need Luciferase Assay % Lum, item `Cc1ccc(C(=O)Nc2ccc(CN3CCN(C)CC3)c(C(F)(F)F)c2)cc1C#Cc1cnc2cccnn12`
Reply text: 84.93

Inquiry: Need Luciferase Assay % Lum, item CNC(=O)c1ccccc1Sc1ccc2c(/C=C/c3ccccn3)n[nH]c2c1 [Axitinib]
Reply text: 24.49

Further cases:
Inquiry: Need Luciferase Assay % Lum, item O=C(Nc1cccc(Nc2ncc(Br)c(NCCc3cnc[nH]3)n2)c1)N1CCCC1 [BX 912, reference compound]
Reply text: 85.82

Inquiry: Need Luciferase Assay % Lum, item `CC(C)(C#N)c1cc(Cn2cncn2)cc(C(C)(C)C#N)c1`
Reply text: 100.06

Inquiry: Need Luciferase Assay % Lum, item `C=C1C[C@@H]2[C@H](CC[C@]3(C)C(=O)CC[C@@H]23)[C@@]2(C)C=CC(=O)C=C12`
Reply text: 90.38

Inquiry: Need Luciferase Assay % Lum, item `Cn1cc(C2=C(c3ccc(Cl)cc3Cl)C(=O)NC2=O)c2ccccc21`
Reply text: 100.07

Inquiry: Need Luciferase Assay % Lum, item `CCNC(=O)c1noc(-c2cc(C(C)C)c(O)cc2O)c1-c1ccc(CN2CCOCC2)cc1`
Reply text: 86.39

Inquiry: Need Luciferase Assay % Lum, item `CC1=C(/C=C/C(C)=C/C=C/C(C)=C/C(=O)O)C(C)(C)CCC1`
Reply text: 80.43

* * *

targetEntity: FGF14:Nav1.6 C-tail complex (Homo sapiens, UniProt Q92915+Q9UQD0)
Construct: polymerase chain reaction (PCR) amplification of the FGF14 open reading frame (nt 1–855); C-terminal fragment of Nav1.6 (amino acids 1763–1976) fused with CD4ΔC-tail (amino acids 1–395); expressed in transfected cells
Sequence (Q92915 1-252 isoform Q92915-2): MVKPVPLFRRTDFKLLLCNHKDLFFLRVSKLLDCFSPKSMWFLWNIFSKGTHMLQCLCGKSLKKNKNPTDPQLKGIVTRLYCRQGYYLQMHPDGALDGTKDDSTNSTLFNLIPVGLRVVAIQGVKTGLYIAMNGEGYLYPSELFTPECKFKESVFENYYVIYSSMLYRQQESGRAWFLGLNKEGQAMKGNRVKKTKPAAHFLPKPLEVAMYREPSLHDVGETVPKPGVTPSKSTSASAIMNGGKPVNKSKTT
Sequence (Q9UQD0 1763-1976 limits assumed): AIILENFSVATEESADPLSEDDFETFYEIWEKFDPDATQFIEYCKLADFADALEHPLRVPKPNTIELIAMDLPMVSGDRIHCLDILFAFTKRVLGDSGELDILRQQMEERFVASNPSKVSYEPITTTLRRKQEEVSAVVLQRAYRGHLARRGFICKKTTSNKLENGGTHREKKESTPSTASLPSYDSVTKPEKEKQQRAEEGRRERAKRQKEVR
assayDetails: Split-luciferase complementation assay (LCA) in Clone V double stable HEK293 cells
Format: cell-based
settings: CC_NCI screening; LCA, biological replicate Set 2; normalized to on-plate 0.3% DMSO controls
readout: Split Luciferase Assay Z-score Set 2
Form rule: numeric answer, no unit written next to it.

Reference set (2 entries):
Inquiry: Need Split Luciferase Assay Z-score Set 2, item FC(F)c1nc2ccccc2n1-c1nc(N2CCOCC2)nc(N2CCOCC2)n1 [ZSTK474]
Reply text: -2.04

Inquiry: Need Split Luciferase Assay Z-score Set 2, item CCCCCCCCCCCCCCCCCCOP(=O)([O-])OC1CC[N+](C)(C)CC1 [PERIFOSINE]
Reply text: -0.86

Further cases:
Inquiry: Need Split Luciferase Assay Z-score Set 2, item CNCc1ccc(-c2[nH]c3cc(F)cc4c3c2CCNC4=O)cc1 [AG014699]
Reply text: -2.63

Inquiry: Need Split Luciferase Assay Z-score Set 2, item C[C@]12O[C@H](C[C@]1(O)CO)n1c3ccccc3c3c4c(c5c6ccccc6n2c5c31)CNC4=O [Lestaurtinib, reference compound]
Reply text: -4.84

Inquiry: Need Split Luciferase Assay Z-score Set 2, item O=C(Nc1cccc(Nc2ncc(Br)c(NCCc3cnc[nH]3)n2)c1)N1CCCC1 [BX 912, reference compound]
Reply text: -4.84

Inquiry: Need Split Luciferase Assay Z-score Set 2, item COC1=C2C[C@@H](C)C[C@H](OC)[C@H](O)[C@@H](C)/C=C(\C)[C@H](OC(N)=O)[C@@H](OC)/C=C\C=C(/C)C(=O)NC(=CC1=O)C2=O [GELDENAMYCIN]
Reply text: -1.11

* * *

targetEntity: full-length P. pyralis luciferase (Photinus pyralis, UniProt P08659, K549A/L550V/N119G/N50D/S548I)
Format: cell-based
settings: CC_NCI screening; full-length luciferase counter-screen; normalized to on-plate 0.3% DMSO controls
*1 amine or outer side, *2 acyl side, *3 side chain or, on linkers, in order; H or OH if unused. Where a SMILES comes first, the peptide text is derived from it. Bridges are numbered along the chain shown (N, C = ends). Roman numbers before positions name the chains, in order. [ ]: non-standard residue; d: D form. Actinocin(9to1) = Cc1c2oc3c(C)ccc(C(=O)[*:1])c3nc-2c(C(=O)[*:2])c(N)c1=O; NMeV = CN[C@H](C(=O)O)C(C)C; Sar = CNCC(=O)O
readout: Luciferase Assay Z-score
Form rule: numeric answer, no unit written next to it.

Reference set (10 entries):
Inquiry: Need Luciferase Assay Z-score, item `CCN(CCO)CCCOc1ccc2c(Nc3cc(CC(=O)Nc4cccc(F)c4)[nH]n3)ncnc2c1`
Reply text: -2.02

Inquiry: Need Luciferase Assay Z-score, item Nc1nc(F)nc2c1ncn2[C@@H]1O[C@H](COP(=O)(O)O)[C@@H](O)[C@@H]1O [Fludarabine phosphate]
Reply text: 2.55

Inquiry: Need Luciferase Assay Z-score, item `C=CC[C@@H]1/C=C(\C)C[C@H](C)C[C@H](OC)[C@H]2O[C@@](O)(C(=O)C(=O)N3CCCC[C@H]3C(=O)O[C@H](/C(C)=C/[C@@H]3CC[C@@H](O)[C@H](OC)C3)[C@H](C)[C@@H](O)CC1=O)[C@H](C)C[C@@H]2OC`
Reply text: -2.88

Inquiry: Need Luciferase Assay Z-score, item `OCCn1cc(-c2cnc3nnn(Cc4ccc5ncccc5c4)c3n2)cn1`
Reply text: 1.42

Inquiry: Need Luciferase Assay Z-score, item `COc1cc2/c(=N/c3ccc(Br)cc3F)nc[nH]c2cc1OCC1CCN(C)CC1`
Reply text: 0.28

Inquiry: Need Luciferase Assay Z-score, item COc1cc([C@@H]2c3cc4c(cc3[C@@H](O[C@@H]3O[C@@H]5CO[C@@H](C)O[C@H]5[C@H](O)[C@H]3O)[C@H]3COC(=O)[C@H]23)OCO4)cc(OC)c1O [Etoposide]
Reply text: 0.48

Inquiry: Need Luciferase Assay Z-score, item `CS(=O)(=O)CCNCc1ccc(-c2ccc3ncnc(Nc4ccc(OCc5cccc(F)c5)c(Cl)c4)c3c2)o1`
Reply text: -1.61

Inquiry: Need Luciferase Assay Z-score, item `O=C(c1ccc(OCCN2CCCCC2)cc1)c1c(-c2ccc(O)cc2)sc2cc(O)ccc12`
Reply text: -1.12

Inquiry: Need Luciferase Assay Z-score, item Cc1c2oc3c(C)ccc(C(=O)N[C@@H]4C(=O)N[C@H](C(C)C)C(=O)N5CCC[C@H]5C(=O)N(C)CC(=O)N(C)[C@@H](C(C)C)C(=O)O[C@@H]4C)c3nc-2c(C(=O)N[C@@H]2C(=O)N[C@H](C(C)C)C(=O)N3CCC[C@H]3C(=O)N(C)CC(=O)N(C)[C@@H](C(C)C)C(=O)O[C@@H]2C)c(N)c1=O [Dactinomycin] (I: T[dV]P[Sar][NMeV] / II: T[dV]P[Sar][NMeV]; ester I:1-I:C, II:1-II:C; linker I:N-II:N via Actinocin(9to1))
Reply text: -0.53

Inquiry: Need Luciferase Assay Z-score, item `CN(C)S(=O)(=O)c1ccc2c(c1)/C(=C/c1cc3c([nH]1)CCCC3)C(=O)N2`
Reply text: 0.17

Further cases:
Inquiry: Need Luciferase Assay Z-score, item Cc1cn(-c2cc(NC(=O)c3ccc(C)c(Nc4nccc(-c5cccnc5)n4)c3)cc(C(F)(F)F)c2)cn1 [NILOTINIB]
Reply text: 0.33

Inquiry: Need Luciferase Assay Z-score, item C[C@]12CC[C@@H]3c4ccc(O)cc4C[C@@H](CCCCCCCCC[S+]([O-])CCCC(F)(F)C(F)(F)F)[C@H]3[C@@H]1CC[C@@H]2O (some centres unmarked)
Reply text: -2.12

Inquiry: Need Luciferase Assay Z-score, item O=S(=O)(NCCNC/C=C/c1ccc(Br)cc1)c1cccc2cnccc12 [H-89, reference compound]
Reply text: -2.44

Inquiry: Need Luciferase Assay Z-score, item `O=P(O)(O)C(O)(Cn1ccnc1)P(=O)(O)O`
Reply text: -0.74

Inquiry: Need Luciferase Assay Z-score, item `Cc1ccc(F)c(NC(=O)Nc2ccc(-c3cccc4[nH]nc(N)c34)cc2)c1`
Reply text: -5.12

Inquiry: Need Luciferase Assay Z-score, item `COc1cc2c(cc1OC)[C@@H]1C(=O)c3ccc4c(c3O[C@@H]1CO2)C=CC(C)(C)O4`
Reply text: -4.32

Inquiry: Need Luciferase Assay Z-score, item `Nc1nc2[nH]cc(CCc3ccc(C(=O)N[C@@H](CCC(=O)O)C(=O)O)cc3)c2c(=O)[nH]1`
Reply text: -0.73
